experiment: growth suppression of yeast trafficking mutant, preliminary HTS, modulators of trafficking downstream of Golgi apparatus project, 1536-format plate, OD 615 nm (AID 637); note: test concentration not given here
experimental context: yeast transport mutant growth, absorbance 615 nm, 18 h; stronger effect = higher value
Assign inhibition to each entry below.
// note: answer is a bare numeric in %

[in] Quick one: inhibition of "CCN(CC)S(=O)(=O)c1ccc2c(c1)nc(SCC(=O)NC1CC1)n2-c1ccccc1OC" ?
[out] 3.65

[in] Value lookup for inhibition; key = "C=CCNC(=O)CSc1ccc(Cl)cc1"
[out] 3.11

[in] Data request, read-out inhibition, for COc1ccc(C(CNC(=O)c2cc(C)oc2C)N2CCOCC2)cc1 (stereo unspecified)
[out] -0.32

[in] Which inhibition reading was recorded for the compound "CCN(CCNC(=O)C1CCN(S(C)(=O)=O)CC1)c1ccccc1" ?
[out] -1

[in] Fill blank: measured inhibition of the compound "COC(=O)c1ccc(CSc2nc3c(cnn3-c3ccc(F)cc3)c(=O)[nH]2)o1" is ____.
[out] -1.9

[in] I am curious: what inhibition value has been reported for "O=C(CNC(=O)c1ccccc1C(=O)O)c1ccccc1" ?
[out] -0.49
